Test system: SNB-19 CNS
Experiment: NCI tumour cell line growth inhibition, 48 h
MEASURED_PROPERTY: log10(TGI) (log10 of the value in µM)
Scale type: logarithmic (base 10). Underlying TGI unit: µM.

Study these solved cases before continuing.
- CCCCCCCCc1cc(O)ccc1O: 1.60
- CCCCCCCCCCCCCCCCCCNc1nc(=O)n(C2CC(OP(=O)(O)OCC3OC(n4cc(F)c(=O)[nH]c4=O)CC3O)C(CO)O2)cc1F (stereo unspecified): 1.48
- CCN(CC)CCNc1ccc([N+](=O)[O-])c2nc3ccc(OC)cc3c(N)c12: 0.52

Would you kindly share the measured log10(TGI) for OCC(S)CS.[Bi] (stereo unspecified) ? 1.57

Would you kindly share the measured log10(TGI) for CC(C)(C)CC(C)(C)NCC(O)COc1ccc(C(C)(C)c2ccc(OCC(O)CNC(C)(C)CC(C)(C)C)cc2)cc1 (stereo unspecified) ? 0.48

Would you kindly share the measured log10(TGI) for CCC(C)N1CN(c2ccccc2)C2(CCN(CCCC3(c4ccc(F)cc4)OCCO3)CC2)C1=O (stereo unspecified) ? 1.54

---

The following compounds are shown together with reported TGI values.
Tested on: SNB-19 CNS
Assay: NCI tumour cell line growth inhibition, 48 h

- Cc1ccsc1/C=N/Nc1cc(C)c2ccccc2n1: 32.8 µM
- CC(CC(=O)Nc1ccc(NC(=O)CC(C)N=NC(N)=O)cc1)N=NC(N)=O (stereo unspecified): > 100 µM
- Cc1c2ccccc2c(C)n2c1nc1cc(Cl)c(Cl)cc12: > 100 µM
- NC1=Nc2ccccc2Sc2ccccc21: > 100 µM
- COc1ccc(C2NC(N)=C(C#N)C3=C2C(C)CCC3)cc1OC (stereo unspecified): > 100 µM

Here is another compound to look at.
Would you kindly share the measured TGI for CNc1nc(-c2ccc3c(N)n[nH]c3c2)cc(N2C[C@@H](C(=O)NC3CCCCC3)CC[C@H]2C)n1 ? 18 µM

---

Test system: HOP-62 NSCLC
Experiment: NCI tumour cell line growth inhibition, 48 h
MEASURED_PROPERTY: TGI (µM)
Unit µM implied. Number only.

* C[C@@H]1Cc2c(ccc3[nH]ncc23)[C@@H](c2ccc(NC3CN(CCCF)C3)cn2)N1CC(F)(F)F | 34.8

Here is another compound to look at.
Would you kindly share the measured TGI for COc1ccc2c(c1)C=CC1C2CC[C@]2(C)C(NC(=O)/C=C/c3ccc(O)c(O)c3)CCC12 (some centres undefined) ? 7.59

---

System: 786-0 renal
Experiment: NCI tumour cell line growth inhibition, 48 h
MEASURED_PROPERTY: TGI

Would you kindly share the measured TGI for O=C1C(OC(=O)c2ccccc2)=C(c2ccc(O)cc2)C(=O)C(OC(=O)c2ccccc2)=C1c1ccc(O)cc1 ? > 100 µM

Would you kindly share the measured TGI for c1ccc(-c2cc3n4c(-c5ccccc5)nn(-c5ccccc5)c4cnc-3n2)cc1 ? > 50 µM

Would you kindly share the measured TGI for Cc1cc(O)c(C(C)C)cc1C(=S)Nc1ccc(Cl)cc1 ? 27.3 µM

Would you kindly share the measured TGI for C=C(CN1CCN(c2ccc(F)c(Cl)c2)CC1)c1ccc(C(=O)Nc2ccccc2N)cc1 ? 13.4 µM

Would you kindly share the measured TGI for CSc1c(C)n([O-])c2cc(Cl)c(Cl)cc2[n+]1=O ? 33.2 µM

Would you kindly share the measured TGI for O=C1c2cc3ncsc3cc2C(=O)c2c(O)ccc(O)c21 ? > 100 µM
